Entry source: patent US11591353B2

Molecular target: human 5-HT2A (h5-HT2A) receptor (Homo sapiens (Human), UniProt P28223)
Experiment: FLIPR assay, human 5-HT2A receptor under agonist mode
Type: cell-based
PROPERTY_LABEL: pEC50
pEC50 field: float, defined as -log10 of concentration (mol/L).

Form field - read-out: pEC50; system: human 5-HT2A (h5-HT2A) receptor (Homo sapiens (Human), UniProt P28223); submitted item: [2H]C([2H])([2H])N(C([2H])([2H])[2H])C([2H])([2H])C([2H])([2H])c1c[nH]c2cccc(OC(=O)CCCCCCC/C=C\C/C=C\CCCCC)c12 [Compound I-28]
6.02

###

Assay: In vivo pharmacokinetics of I-28 and its metabolite I-45 in mice (i.v. and p.o.)
Design: species or system Male C57 BL/6 mice
Settings: male, C57 BL/6, iv; i.v., I-28 2.2 mg/kg (equimolar to 1 mg/kg metabolite), I-28 in mouse plasma
PROPERTY_LABEL: C0
Give the figure together with its unit, number first.

Would you kindly share the measured C0 for [2H]C([2H])([2H])N(C([2H])([2H])[2H])C([2H])([2H])C([2H])([2H])c1c[nH]c2cccc(OC(=O)CCCCCCC/C=C\C/C=C\CCCCC)c12 ?
0.448 µg/mL

###

The entries below come with measured microsomal CLint at 2 μM values attached.
Assay: Liver microsomes stability, mouse
Conditions: male, mouse, microsomes
Numbers only here, please. The scale is µL/min/mg.

{"COMPOUND": "[2H]C([2H])([2H])N(C([2H])([2H])[2H])C([2H])([2H])C([2H])([2H])c1c[nH]c2cccc(O)c12 [Compound I-45]", "UNITS_LABEL": "µL/min/mg", "REPORTED": 5.65}
{"COMPOUND": "[2H]C([2H])([2H])N(C([2H])([2H])[2H])C([2H])([2H])C([2H])([2H])c1c[nH]c2cccc(OCc3ccccc3)c12 [Compound I-46]", "UNITS_LABEL": "µL/min/mg", "REPORTED": 26.8}

As a next step, examine the compound that follows.
Which microsomal CLint at 2 μM is listed for [2H]C([2H])([2H])N(C([2H])([2H])[2H])C([2H])([2H])C([2H])([2H])c1c[nH]c2cccc(OC(=O)CCCCCCC/C=C\C/C=C\CCCCC)c12 [Compound I-28] ?
83.7

###

Experiment: Liver microsomes stability, rat
Details: male, rat, microsomes
Below, each of the molecules is paired with its reported half-life at 2 μM value.
Reply with the number, then its unit.

{"MOLECULE": "[2H]C([2H])([2H])N(C([2H])([2H])[2H])C([2H])([2H])C([2H])([2H])c1c[nH]c2cccc(O)c12 [Compound I-45]", "REPORTED": "106 min"}
{"MOLECULE": "[2H]C([2H])([2H])N(C([2H])([2H])[2H])C([2H])([2H])C([2H])([2H])c1c[nH]c2cccc(OCc3ccccc3)c12 [Compound I-46]", "REPORTED": "35.6 min"}

So what does the record say about half-life at 2 μM for [2H]C([2H])([2H])N(C([2H])([2H])[2H])C([2H])([2H])C([2H])([2H])c1c[nH]c2cccc(OC(=O)CCCCCCC/C=C\C/C=C\CCCCC)c12 [Compound I-28] ?
39.5 min
